Data origin, for the record: PubChem BioAssay (NCI)

Test system: MALME-3M melanoma
protocol: NCI-60 one-dose screen, 48 h
condition_info: 10 µM unless noted
Compounds without any hit were thinned out: in the full panel of roughly 83,000, 20% have a hit. Active and inactive are the calls of the source. How the source made its calls: active means growth percent below 10; inactive means the rest.
Classes used: active, inactive

{"compound": "COc1cccc2c1C(=O)c1c(O)c3c(c(O)c1C2=O)C[C@@](O)(C(=O)CO)C[C@@H]3O[C@H]1C[C@H](N)[C@@H](O)[C@H](C)O1", "system_name": "MALME-3M melanoma", "discrete_label": "active"}
{"compound": "CN1CCN(CCCNc2nccc(-c3c(-c4ccc(F)c(O)c4)nc4sccn34)n2)S1(=O)=O", "system_name": "MALME-3M melanoma", "discrete_label": "active"}
{"compound": "O=C1NC(=O)C(=Cc2cn(Cc3ccccn3)c3ccccc23)C(=O)N1", "system_name": "MALME-3M melanoma", "discrete_label": "inactive"}
{"compound": "COc1ccc(-c2c(-c3ccccc3)noc2N)cc1OC", "system_name": "MALME-3M melanoma", "discrete_label": "inactive"}
{"compound": "COc1ccc(NS(=O)(=O)c2ccc(C)cc2)c([N+](=O)[O-])c1", "system_name": "MALME-3M melanoma", "discrete_label": "inactive"}
{"compound": "CN(C)c1ccc(-c2c(C#N)c(N)n3nc(N)c(C#N)c3c2C#N)cc1", "system_name": "MALME-3M melanoma", "discrete_label": "inactive"}
{"compound": "O=C1Nc2c(ccc(Cl)c2Cl)/C1=C/c1ccc([N+](=O)[O-])cc1", "system_name": "MALME-3M melanoma", "discrete_label": "inactive"}
{"compound": "CC(=O)N1c2ccccc2NC2=C(C(=O)N(Cc3ccccc3)C2(C)C)C1c1ccco1 (stereo not drawn)", "system_name": "MALME-3M melanoma", "discrete_label": "inactive"}
{"compound": "C=CCn1c(SCC(=O)Nc2ccc(C(=O)/C=C/c3cc(OC)c(OC)c(OC)c3)cc2)nnc1-c1cc(OC)c(OC)c(OC)c1", "system_name": "MALME-3M melanoma", "discrete_label": "inactive"}
{"compound": "O=C(OC(OC(=O)c1cc(Cl)cc(Cl)c1)c1cccc2ccccc12)c1ccccc1 (stereo not drawn)", "system_name": "MALME-3M melanoma", "discrete_label": "inactive"}
{"compound": "COc1ccccc1-c1c(-c2ccc(Cl)cc2)c2cc3c(cc2[nH]c1=O)OCCO3", "system_name": "MALME-3M melanoma", "discrete_label": "inactive"}
{"compound": "O=S(=O)(c1cccc(NC2=Nc3cccc4cccc2c34)c1)N1CCCC1", "system_name": "MALME-3M melanoma", "discrete_label": "inactive"}
{"compound": "CCC(=O)c1ccc(O)c(OC)c1", "system_name": "MALME-3M melanoma", "discrete_label": "inactive"}
{"compound": "CCN(CC)CCCC(C)Nc1cc(-c2cccc(OC(F)(F)F)c2)nc2ccc(N3CCCC3)cc12 (stereo not drawn)", "system_name": "MALME-3M melanoma", "discrete_label": "active"}
{"compound": "O=C(CCN1CCCC1)Nc1ccc2c(NCc3ccc(F)cc3)c3ccccc3nc2c1", "system_name": "MALME-3M melanoma", "discrete_label": "active"}
{"compound": "COc1ccc(C2=NN(C(C)=O)C(c3cn(Cc4ccc(Cl)cc4)c4ccccc34)C2)cc1 (stereo not drawn)", "system_name": "MALME-3M melanoma", "discrete_label": "inactive"}
{"compound": "COc1cccc(-c2nc3occn3c2-c2ccnc(NCCCNS(=O)(=O)c3cccc(F)c3)n2)c1", "system_name": "MALME-3M melanoma", "discrete_label": "inactive"}
{"compound": "O=C(c1ccccc1)N1N=C(c2ccc(-n3ccc(C(F)(F)F)n3)cc2)CC1c1ccc[nH]1 (stereo not drawn)", "system_name": "MALME-3M melanoma", "discrete_label": "inactive"}
{"compound": "O=C(Nc1nc2ccc(C(=O)N3CCN(c4ccc(Cl)c(Cl)c4)CC3)cc2s1)c1ccc(NCCc2ccccc2)c([N+](=O)[O-])c1", "system_name": "MALME-3M melanoma", "discrete_label": "inactive"}
{"compound": "CCCCCCN(C)Cc1ccc(OCCOc2ccc(CN(C)CCCCCC)cc2)cc1", "system_name": "MALME-3M melanoma", "discrete_label": "active"}
{"compound": "C=C1C(=O)O[C@H]2[C@H]1CC/C(COC(=O)/C=C/c1c[nH]c3ccccc13)=C\\CC[C@@]1(C)O[C@@H]21", "system_name": "MALME-3M melanoma", "discrete_label": "active"}
{"compound": "CCOC(=O)c1ccc(Nc2ccnc(SCC(=O)c3ccc(C#N)cc3)n2)cc1", "system_name": "MALME-3M melanoma", "discrete_label": "inactive"}
{"compound": "COc1c(Cl)cc(Cl)c2ccc(C=C3C(=O)N(C)C(=O)N(C)C3=O)nc12", "system_name": "MALME-3M melanoma", "discrete_label": "inactive"}
